# assay-system: Quadruplex DNA
# method: Displacement of thiazole orange from human telomeric G-quadruplex DNA after 5 mins in presence of KCl by fluorescence assay
# Assay type: nucleic-acid assay
quantity-measured: DC50 (nM)
Please reply with the bare figure in nM and do not write the unit itself.

Field: example entries. Status: answers known.
smiles_representation=CN1CCN(CCCCn2c3ccc(-c4nc5cc(N6CCN(CCO)CC6)ccc5[nH]4)cc3c3cc(-c4nc5cc(N6CCN(CCO)CC6)ccc5[nH]4)ccc32)CC1 quantitative_result=1150
smiles_representation=CN(C)CCCCn1c2ccc(-c3nc4ccc(N5CCN(CCO)CC5)cc4[nH]3)cc2c2cc(-c3nc4ccc(N5CCN(CCO)CC5)cc4[nH]3)ccc21 quantitative_result=1130

Please look at the following molecule next.
Any idea what its DC50 is? The molecule is CN1CCN(CCCCn2c3ccc(-c4nc5cc(N6CCOCC6)ccc5[nH]4)cc3c3cc(-c4nc5cc(N6CCOCC6)ccc5[nH]4)ccc32)CC1
1300

###

# System: Quadruplex DNA
# method: Binding affinity to human c-Kit1 G-quadruplex DNA assessed as stabilization of parallel stranded topology after 5 mins in presence of KCl by CD spectroscopic method
# Assay type: nucleic-acid assay
Activity calls are given as the source filed them. The rule behind the calls is not given here.
quantity-measured: Activity

smiles_representation=CN(C)CCCCn1c2ccc(-c3nc4ccc(N5CCN(CCO)CC5)cc4[nH]3)cc2c2cc(-c3nc4ccc(N5CCN(CCO)CC5)cc4[nH]3)ccc21 assay_system="Quadruplex DNA" quantity_measured=Activity result=Active
smiles_representation=C[N+]1(CCCCN2CCOCC2)CCN(CCCCn2c3ccc(-c4nc5ccc(N6CCOCC6)cc5[nH]4)cc3c3cc(-c4nc5ccc(N6CCOCC6)cc5[nH]4)ccc32)CC1 assay_system="Quadruplex DNA" quantity_measured=Activity result=Active
smiles_representation=CCn1c2ccc(-c3nc4ccc(N5CCN(CCO)CC5)cc4[nH]3)cc2c2cc(-c3nc4ccc(N5CCN(CCO)CC5)cc4[nH]3)ccc21 assay_system="Quadruplex DNA" quantity_measured=Activity result=Active
smiles_representation=CN1CCN(CCCCn2c3ccc(-c4nc5cc(N6CCOCC6)ccc5[nH]4)cc3c3cc(-c4nc5cc(N6CCOCC6)ccc5[nH]4)ccc32)CC1 assay_system="Quadruplex DNA" quantity_measured=Activity result=Active

Any idea what its Activity is? The molecule is CN1CCN(CCCCn2c3ccc(-c4nc5cc(N6CCN(CCO)CC6)ccc5[nH]4)cc3c3cc(-c4nc5cc(N6CCN(CCO)CC6)ccc5[nH]4)ccc32)CC1
Active
